This collection of values is drawn from ChEMBL document CHEMBL1144959.

target: Integrin alpha-5/beta-1 (Homo sapiens, UniProt P05556+P08648); assay: Inhibition of fibronectin (GST-3Fn8-11) binding to recombinant soluble mini integrin alpha5-beta1; type: protein-complex assay
Sequence (P05556 21-798 limits assumed): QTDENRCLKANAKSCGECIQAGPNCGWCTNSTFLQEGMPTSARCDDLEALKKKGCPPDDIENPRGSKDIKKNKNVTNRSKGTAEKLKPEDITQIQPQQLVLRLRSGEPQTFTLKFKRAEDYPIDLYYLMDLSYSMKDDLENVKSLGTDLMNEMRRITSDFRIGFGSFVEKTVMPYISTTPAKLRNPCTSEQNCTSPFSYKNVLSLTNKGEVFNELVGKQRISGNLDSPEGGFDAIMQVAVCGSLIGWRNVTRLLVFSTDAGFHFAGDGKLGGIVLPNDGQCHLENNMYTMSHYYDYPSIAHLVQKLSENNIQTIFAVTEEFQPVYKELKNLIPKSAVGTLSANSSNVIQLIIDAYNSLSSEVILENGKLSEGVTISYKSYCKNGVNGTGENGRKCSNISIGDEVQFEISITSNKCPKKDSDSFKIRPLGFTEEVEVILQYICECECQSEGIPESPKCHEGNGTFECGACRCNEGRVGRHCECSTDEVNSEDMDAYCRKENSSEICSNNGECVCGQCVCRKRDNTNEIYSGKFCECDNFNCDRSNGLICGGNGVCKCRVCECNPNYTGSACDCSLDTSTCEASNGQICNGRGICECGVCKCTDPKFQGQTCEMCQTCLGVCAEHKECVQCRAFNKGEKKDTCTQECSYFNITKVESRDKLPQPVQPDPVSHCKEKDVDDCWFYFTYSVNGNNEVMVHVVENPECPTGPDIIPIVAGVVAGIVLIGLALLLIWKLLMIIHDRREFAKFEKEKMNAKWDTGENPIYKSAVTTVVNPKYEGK
Sequence (P08648 42-894 limits assumed): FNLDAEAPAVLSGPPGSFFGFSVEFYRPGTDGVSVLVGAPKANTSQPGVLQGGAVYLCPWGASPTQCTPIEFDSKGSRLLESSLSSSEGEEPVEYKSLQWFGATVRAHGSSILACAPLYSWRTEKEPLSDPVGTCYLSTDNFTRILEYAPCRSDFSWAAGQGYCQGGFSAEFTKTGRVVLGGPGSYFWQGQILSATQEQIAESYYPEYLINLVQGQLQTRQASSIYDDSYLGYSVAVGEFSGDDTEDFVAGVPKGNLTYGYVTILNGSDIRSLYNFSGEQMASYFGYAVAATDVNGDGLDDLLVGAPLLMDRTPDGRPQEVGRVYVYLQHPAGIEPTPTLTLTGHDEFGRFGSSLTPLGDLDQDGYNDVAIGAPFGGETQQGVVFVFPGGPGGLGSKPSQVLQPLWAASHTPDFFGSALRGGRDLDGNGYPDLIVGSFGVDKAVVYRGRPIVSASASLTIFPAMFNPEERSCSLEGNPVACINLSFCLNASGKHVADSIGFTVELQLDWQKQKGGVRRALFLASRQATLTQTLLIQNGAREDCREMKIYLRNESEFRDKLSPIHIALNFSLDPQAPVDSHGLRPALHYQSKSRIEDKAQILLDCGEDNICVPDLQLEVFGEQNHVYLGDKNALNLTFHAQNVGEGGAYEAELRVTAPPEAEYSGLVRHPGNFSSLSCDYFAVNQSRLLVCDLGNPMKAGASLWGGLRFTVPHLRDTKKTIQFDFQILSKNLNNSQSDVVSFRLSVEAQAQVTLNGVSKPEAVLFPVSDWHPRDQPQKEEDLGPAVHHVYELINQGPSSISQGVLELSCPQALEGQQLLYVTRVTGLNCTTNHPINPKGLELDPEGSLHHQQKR
Sequence (P08648 895-1049 limits assumed): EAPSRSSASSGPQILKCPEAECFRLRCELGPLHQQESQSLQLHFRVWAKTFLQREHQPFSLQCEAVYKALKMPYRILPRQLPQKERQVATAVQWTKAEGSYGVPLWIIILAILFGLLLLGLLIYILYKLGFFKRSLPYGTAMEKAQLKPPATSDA
quantity name: pIC50
Note: pIC50 values are expressed as the negative base-10 logarithm of concentration in M.

Worked examples follow.
N=C(N)NCCCNC(=O)[C@@H]1CCC(=O)N2C[C@H](CCC(=O)O)[C@H]2C1; 2.51
NC(N)=NCCC[C@H](N)C(=O)NCC(=O)N[C@@H](CC(=O)O)C(=O)N[C@@H](CO)C(=O)O; 5.66
N=C(N)NCCCNC(=O)C1CCC(=O)N2CC(CCC(=O)O)C2C1 (centres undefined); 2.89

Please turn your attention to the following entry.
Consider the molecule `N=C(N)NCCCNC(=O)[C@H]1CCC(=O)N2C[C@H](CCC(=O)O)[C@H]2C1` and give its measured pIC50.
4.19
